Each item that follows carries a reported Relative binding activity, %.
Molecular target: T1, Biotin-huCGRPaSA (human, not fully specified; biotin (position not given))
T1 construct: exact construct ('aSA') not explained; also called Biotin CGRPaSA; full-length (1-37) CGRP
T1 peptide: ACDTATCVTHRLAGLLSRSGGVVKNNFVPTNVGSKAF
Test: ELISA, supernatant; relative to chimeric C245

| Binder | Relative binding activity, % (%) |
| --- | --- |
| hu105 (antibody, V domains shown, 2B8 HC1-1/1A2 LC2-1) VH: QVQLVQSGAEVKKPGASVKVSCKASGYTFTDYNMHWVRQAPGQGLEWMGNIYPYNGGTVYNQKFNNRVTLTVDTSSSTAYMELSRLRSDDTAVYYCAREGLGGYWGQGTLVTVSS VL: DIVLTQSPASLAVSPGQRATITCKASQNIDYDGYAYLNWYQQKPGQPPKVLIYSVFNLESGVPARFSGSGSGTDFTLTINPVEANDTANYYCQQSNEFPYTFGQGTKLEIK | 31 |
| hu30 (antibody, V domains shown, 1F5 HC-1/1A2 LC2-4) VH: QVQLVQSGAEVKKPGASVKVSCKASGYTFIDFNMHWVRQAPGQRLEWMGYIYPYNGDVVYNQNFTNRVTLTVDTSSSTAYMELSSLRSEDTAVYYCAREGLGGYWGQGTLVTVSS VL: DIQLTQSPSFLSASVGDRVTITCKASQNIDYDGYAYLNWYQQKPGKAPKVLIYSVFNLESGVPSRFSGSGSGTEFTLTISSLQPEDFATYYCQQSNEFPYTFGQGTKLEIK | 47 |
| hu35 (antibody, V domains shown, 1F5 HC-1/2B8 LC2-1) VH: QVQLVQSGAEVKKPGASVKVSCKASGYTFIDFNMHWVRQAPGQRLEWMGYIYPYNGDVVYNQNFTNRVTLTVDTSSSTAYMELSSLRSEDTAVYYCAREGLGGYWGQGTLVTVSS VL: DIVLTQSPDSLAVSLGERATINCQASQNIDGNTYMNWYQQKPGQPPKVLIYSIFNLESGVPDRFSGSGSGTDFTLTISSLQAEDVAVYYCQQSNDYPYTFGQGTKLEIK | 65 |
| hu162 (antibody, V domains shown, 3E5 HC-2/1F5 LC1-2) VH: QVQLVQSGAEVKKPGASVKVSCKASGYTFTDYNMHWVRQAPGQRLEWMGYISPYNGGTAYNQKFKFRVTLTVDTSSSTAYMELSSLRSEDTAVYYCAREGLGGYWGQGTLVTVSS VL: EIVLTQSPATLSLSPGERATLSCKASQNIDFDGYAYMNWYQHKPGQAPRVLIYSVFNLESGIPARFSGSGSGTDFTLTISSLEPEDFAVYYCQQSHEVPYTFGQGTKLEIK | 81 |
| hu204 (antibody, V domains shown, 3H10 HC-1/2B8 LC2-1) VH: QVQLVQSGAEVKKPGASVKVSCKASGYTFTDYNMHWVRQAPGQGLEWMGYIYPYNGHTVYNQKFRNRVTMTVDTSSSTAYMELRSLRSDDTAVYYCAKEGLGGYWGQGTLVTVSS VL: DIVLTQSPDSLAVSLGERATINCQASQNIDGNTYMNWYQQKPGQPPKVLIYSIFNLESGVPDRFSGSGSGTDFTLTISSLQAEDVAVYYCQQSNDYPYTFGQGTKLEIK | 68 |
